method: The drug is tested on Blautia luti strain: DSM14534 for biotransformation. The drug concentrations were measured before and after a 12-h incubation by liquid-chromatography-coupled mass spectrometry (LC–MS)
Assay type: ADME
Design: dose 2 uM, timepoint 0 vs 12 hours
details: 2 µM
readout.type: Bacterial Biotransformation

// worked examples, Bacterial Biotransformation included
Cc1nc(Nc2ncc(C(=O)Nc3c(C)cccc3Cl)s2)cc(N2CCN(CCO)CC2)n1.O [DASATINIB] :: Compound NOT metabolized
CN/C(=N/CCSCc1nc[nH]c1C)NC#N [CIMETIDINE] :: Compound NOT metabolized
Cc1nc2n(c(=O)c1CCN1CCC(c3noc4cc(F)ccc34)CC1)CCCC2O (centres undefined) [PALIPERIDONE] :: Compound metabolized
COC1=CC(=O)C[C@@H](C)[C@]12Oc1c(Cl)c(OC)cc(OC)c1C2=O [GRISEOFULVIN] :: Compound NOT metabolized
O=C1C(CC[S+]([O-])c2ccccc2)C(=O)N(c2ccccc2)N1c1ccccc1 (centres undefined) [SULFINPYRAZONE] :: Compound NOT metabolized

Next item in the queue.
Asked: Supply measured Bacterial Biotransformation of CCC(COC(=O)c1cc(OC)c(OC)c(OC)c1)(c1ccccc1)N(C)C.O=C(O)/C=C\C(=O)O (centres undefined) in your reply.
Given back: Compound metabolized

Hey, just so you know, these numbers are from ChEMBL document CHEMBL5303573.
